These entries and their values trace back to patent EP3165222A1.

assay: Safe dose test (toxicity of BP to zebrafish, survival rate); settings: in vivo, 50 mg/kg BP injected, after 48 hours, 28.5°C, Figure 2, read-out: survival rate of the zebrafishes
Endpoint: survival at 48 h

Request: Fill in: survival at 48 h of CCCC=C1OC(=O)c2ccccc21 [BP, n-butylidenephthalide] is ___
Response: > 75%

###

Experiment: Safe dose test (toxicity of BP to zebrafish, survival rate)
Conditions: in vivo, 500 mg/kg BP injected, after 48 hours, 28.5°C, Figure 2, read-out: survival rate of the zebrafishes
Description: In this experiment, the zebrafishes that were used as the animal models in the experimental group were Tg (HuC:GFP), which is characterized by its primary sensory neurons (Rohon-Beard cells) that can produce fluorescence. The zebrafishes used in the control group were wild type zebrafishes. All of the zebrafishes were provided by TZCAS (Taiwan Zebrafish Core Facility at Academia Sinica, Taiwan) and TZCF (Taiwan Zebrafish Core Facility, Taiwan). […]
Endpoint: survival at 48 h (%)
Give your result in % as a bare value.

Request: Fill in: survival at 48 h of CCCC=C1OC(=O)c2ccccc21 [BP, n-butylidenephthalide] is ___
Response: 50

###

test: Safe dose test (toxicity of BP to zebrafish, survival rate); conditions: in vivo, 250 mg/kg BP injected, after 48 hours, 28.5°C, Figure 2, read-out: survival rate of the zebrafishes
Endpoint: survival at 48 h

Request: Fill in: survival at 48 h of CCCC=C1OC(=O)c2ccccc21 [BP, n-butylidenephthalide] is ___
Response: > 75%
